Test system: SK-MEL-5 melanoma
Assay: NCI tumour cell line growth inhibition, 48 h
readout.type: TGI

The examples below pair each entry with its known result.
| compound | TGI |
| --- | --- |
| O=C(c1ccccn1)c1nnn2ccccc12 | > 100 µM |
| O=C(/C=C/C=C/c1ccccc1)c1ccc(Nc2nc(Nc3ccccc3)nc(Nc3ccccc3)n2)cc1 | > 100 µM |
| CN(CCCCCl)P(=O)(OCc1ccc([N+](=O)[O-])o1)C(F)(F)c1ccc(CC(=O)N[C@@H](CC(=O)O)C(=O)N[C@@H](Cc2ccc(C(F)(F)P(=O)(OCc3ccc([N+](=O)[O-])o3)N(C)CCCCCl)cc2)C(N)=O)cc1 (stereo not given in full) | > 100 µM |
| O=C1ON(Cc2ccccc2)C(c2ccccc2)N1c1ccccc1 (stereo not given) | > 100 µM |
| COc1ccc(C(=O)/C=C2\c3ccccc3C(=O)N2C)cc1 | > 100 µM |
| CS(=O)(=O)N1CCN(Cc2cc3nc(-c4cccc5[nH]ncc45)nc(N4CCOCC4)c3s2)CC1 | > 100 µM |

State recorded TGI for all listed compounds.
1. O=C(CCc1nnc2s/c(=C\c3ccc4c(c3)OCO4)c(=O)n12)Nc1cc(Cl)ccc1Cl
2. N#Cc1ccc(/C=N\N2C(=O)c3ccccc3C2=O)cc1
3. COc1ccc2nc3cc(Cl)ccc3c(NCCC(=O)OCC(O)C(O)C(O[C@H](C)C(=O)NC(C)C(=O)NC(CCC(N)=O)C(=O)OCc3ccccc3)C(C=O)NC(C)=O)c2c1 (stereo not given in full)
4. O=C(O)CN1CCNCCN(CC(=O)O)CCNCC1
5. CCCCCCc1cc2cc(C(=O)Nc3ccccc3F)c(=N)oc2cc1O

> 100 µM
> 100 µM
30.2 µM
21.9 µM
12.8 µM
